Test system: erythromycin resistant strain of Streptococcus pyogenes
Experiment: MIC, microtiter broth serial dilution test, erythromycin resistant S. pyogenes
Type: cell-based
Settings: read-out: MIC against erythromycin resistant strain of Streptococcus pyogenes
// values below are reported MIC
QUANTITY: MIC

SMILES_CODE	RESULT_VALUE
CC[C@H]1OC(=O)[C@H](C)[C@@H](O[C@H]2C[C@@](C)(OC)[C@@H](OCCNCCOCCNc3cc4c(cc3F)c(=O)c(C(=O)O)cn4C3CC3)[C@H](C)O2)[C@H](C)[C@@H](O[C@@H]2O[C@H](C)C[C@H](N(C)C)[C@H]2O)[C@](C)(O)C[C@@H](C)CN(C)[C@H](C)[C@H]2OC(=O)O[C@@]21C	≤ 0.25 µg/mL
CC[C@H]1OC(=O)[C@H](C)[C@@H](O[C@H]2C[C@@](C)(OC)[C@@H](OCCCNCCOCCCc3ccc4c(c3)c(=O)c(C(=O)O)cn4CC)[C@H](C)O2)[C@H](C)[C@@H](O[C@@H]2O[C@H](C)C[C@H](N(C)C)[C@H]2O)[C@](C)(O)C[C@@H](C)CN(C)[C@H](C)[C@@H](O)[C@]1(C)O	≤ 0.25 µg/mL
CC[C@H]1OC(=O)[C@H](C)[C@@H](O[C@H]2C[C@@](C)(OC)[C@@H](OCCNCCOCCOCCc3ccc4c(c3)c(=O)c(C(=O)O)cn4CC)[C@H](C)O2)[C@H](C)[C@@H](O[C@@H]2O[C@H](C)C[C@H](N(C)C)[C@H]2O)[C@](C)(OC)C[C@@H](C)C(=O)[C@H](C)[C@@H](O)[C@]1(C)O	≤ 0.25 µg/mL

* * *

Test system: erythromycin resistant strain of Streptococcus pneumoniae
Experiment: MIC, microtiter broth serial dilution test, erythromycin resistant S. pneumoniae
Format: cell-based
Conditions: read-out: MIC against erythromycin resistant strain of Streptococcus pneumoniae

MOLECULE	MIC
CC[C@H]1OC(=O)[C@H](C)[C@@H](OC2C[C@@](C)(OC)[C@@H](OCCNCCOCCNc3cc4c(=O)c(C(=O)O)cn(C5CC5)c4cc3Cl)[C@H](C)O2)[C@H](C)[C@@H](O[C@@H]2O[C@H](C)C[C@H](N(C)C)[C@H]2O)[C@](C)(O)C[C@@H](C)CN(C)[C@H](C)[C@@H]2OC(=O)O[C@]12C (stereo partly drawn)	≤ 0.25 µg/mL
CC[C@H]1OC(=O)[C@H](C)[C@@H](O[C@H]2C[C@@](C)(OC)[C@@H](OCCCNC(=O)CCOCCOCCNc3cc4c(=O)c(C(=O)O)cn(C5CC5)c4cc3Cl)[C@H](C)O2)[C@H](C)[C@@H](O[C@@H]2O[C@H](C)C[C@H](N(C)C)[C@H]2O)[C@](C)(O)C[C@@H](C)CN(C)[C@H](C)[C@@H](O)[C@]1(C)O	≤ 0.25 µg/mL
CC[C@H]1OC(=O)[C@H](C)[C@@H](O[C@H]2C[C@@](C)(OC)[C@@H](OCCCOCCOCCCc3ccc4c(c3)c(=O)c(C(=O)O)cn4CC)[C@H](C)O2)[C@H](C)[C@@H](O[C@@H]2O[C@H](C)C[C@H](N(C)C)[C@H]2O)[C@](C)(O)C[C@@H](C)CN(C)[C@H](C)[C@@H](OC)[C@]1(C)O	≤ 0.25 µg/mL

* * *

Test system: sensitive S. pneumoniae
Experiment: MIC, microtiter broth serial dilution test, sensitive S. pneumoniae
Type: cell-based
Settings: Streptococcus pneumoniae; sensitive strain; read-out: MIC against sensitive S. pneumoniae

COMPOUND	MIC
CC[C@H]1OC(=O)[C@H](C)[C@@H](O[C@H]2C[C@@](C)(OC)[C@@H](OCCCNC(=O)CCOCCCc3ccc4c(c3)c(=O)c(C(=O)O)cn4N(C)C)[C@H](C)O2)[C@H](C)[C@@H](O[C@@H]2O[C@H](C)C[C@H](N(C)C)[C@H]2O)[C@](C)(OC)C[C@H](C)C(=O)[C@H](C)[C@@H](O)[C@]1(C)O [Example 9]	≤ 0.125 µg/mL

* * *

Below, each entry is listed with its recorded MIC.
System: sensitive S. pneumoniae
Test: MIC, microtiter broth serial dilution test, sensitive S. pneumoniae
Assay type: cell-based
Conditions: Streptococcus pneumoniae; sensitive strain; read-out: MIC against sensitive S. pneumoniae

COMPOUND	MIC
CC[C@H]1OC(=O)[C@H](C)[C@@H](O[C@H]2C[C@@](C)(OC)[C@@H](OCCNCCOCCNc3cc4c(cc3F)c(=O)c(C(=O)O)cn4C3CC3)[C@H](C)O2)[C@H](C)[C@@H](O[C@@H]2O[C@H](C)C[C@H](N(C)C)[C@H]2O)[C@](C)(O)C[C@@H](C)CN(C)[C@H](C)[C@H]2OC(=O)O[C@@]21C	≤ 0.125 µg/mL
CC[C@H]1OC(=O)[C@H](C)[C@@H](O[C@H]2C[C@@](C)(OC)[C@@H](OCCCOCCOCCCc3ccc4c(c3)c(=O)c(C(=O)O)cn4N(C)C)[C@H](C)O2)[C@H](C)[C@@H](O[C@@H]2O[C@H](C)C[C@H](N(C)C)[C@H]2O)[C@](C)(O)C[C@@H](C)CN(C)[C@H](C)[C@@H](O)[C@]1(C)O	≤ 0.125 µg/mL
CC[C@H]1OC(=O)[C@H](C)[C@@H](OC2C[C@@](C)(OC)[C@@H](OCCNCCOCCNc3cc4c(=O)c(C(=O)O)cn(C5CC5)c4cc3Cl)[C@H](C)O2)[C@H](C)[C@@H](O[C@@H]2O[C@H](C)C[C@H](N(C)C)[C@H]2O)[C@](C)(O)C[C@@H](C)CN(C)[C@H](C)[C@@H]2OC(=O)O[C@]12C (stereo partly drawn)	≤ 0.125 µg/mL

* * *

Listing: MIC of selected molecules
Test system: erythromycin resistant strain of Streptococcus pneumoniae
Assay: MIC, microtiter broth serial dilution test, erythromycin resistant S. pneumoniae
Format: cell-based
Conditions: read-out: MIC against erythromycin resistant strain of Streptococcus pneumoniae
QUANTITY: MIC

SMILES_CODE	QUANTITY	RESULT_VALUE
CC[C@H]1OC(=O)[C@H](C)[C@@H](O[C@H]2C[C@@](C)(OC)[C@@H](OCCCOCCCOCCCc3ccc4c(c3)c(=O)c(C(=O)O)cn4C3CC3)[C@H](C)O2)[C@H](C)[C@@H](O[C@@H]2O[C@H](C)C[C@H](N(C)C)[C@H]2O)[C@](C)(O)C[C@@H](C)CN(C)[C@H](C)[C@@H](O)[C@]1(C)O	MIC	≤ 0.25 µg/mL
CC[C@H]1OC(=O)[C@H](C)[C@@H](O[C@H]2C[C@@](C)(OC)[C@@H](OCCNCCOCCNc3cc4c(cc3F)c(=O)c(C(=O)O)cn4C3CC3)[C@H](C)O2)[C@H](C)[C@@H](O[C@@H]2O[C@H](C)C[C@H](N(C)C)[C@H]2O)[C@](C)(O)C[C@@H](C)CN(C)[C@H](C)[C@H]2OC(=O)O[C@@]21C	MIC	≤ 0.25 µg/mL
CC[C@H]1OC(=O)[C@H](C)[C@@H](O[C@H]2C[C@@](C)(OC)[C@@H](OCCNCCOCCOCCc3ccc4c(c3)c(=O)c(C(=O)O)cn4CC)[C@H](C)O2)[C@H](C)[C@@H](O[C@@H]2O[C@H](C)C[C@H](N(C)C)[C@H]2O)[C@](C)(OC)C[C@@H](C)C(=O)[C@H](C)[C@@H](O)[C@]1(C)O	MIC	≤ 0.25 µg/mL

* * *

The entries below are paired with their reported MIC.
Test system: erythromycin resistant strain of Streptococcus pyogenes
Experiment: MIC, microtiter broth serial dilution test, erythromycin resistant S. pyogenes
Assay type: cell-based
Conditions: read-out: MIC against erythromycin resistant strain of Streptococcus pyogenes
QUANTITY: MIC

COMPOUND	QUANTITY	RESULT_VALUE
CC[C@H]1OC(=O)[C@H](C)[C@@H](OC2C[C@@](C)(OC)[C@@H](OCCNCCOCCOCCNc3cc4c(=O)c(C(=O)O)cn(C5CC5)c4cc3Cl)[C@H](C)O2)[C@H](C)[C@@H](O[C@@H]2O[C@H](C)C[C@H](N(C)C)[C@H]2O)[C@](C)(O)C[C@@H](C)CN(C)[C@H](C)[C@@H]2OC(=O)O[C@]12C (some centres unmarked) [Example 2]	MIC	≤ 0.25 µg/mL
CC[C@H]1OC(=O)[C@H](C)[C@@H](O[C@H]2C[C@@](C)(OC)[C@@H](OCCCOCCCOCCCc3ccc4c(c3)c(=O)c(C(=O)O)cn4C3CC3)[C@H](C)O2)[C@H](C)[C@@H](O[C@@H]2O[C@H](C)C[C@H](N(C)C)[C@H]2O)[C@](C)(O)C[C@@H](C)CN(C)[C@H](C)[C@@H](O)[C@]1(C)O [Example 13]	MIC	≤ 0.25 µg/mL
CC[C@H]1OC(=O)[C@H](C)[C@@H](O[C@H]2C[C@@](C)(OC)[C@@H](OCCCNC(=O)CCOCCCc3ccc4c(c3)c(=O)c(C(=O)O)cn4N(C)C)[C@H](C)O2)[C@H](C)[C@@H](O[C@@H]2O[C@H](C)C[C@H](N(C)C)[C@H]2O)[C@](C)(OC)C[C@H](C)C(=O)[C@H](C)[C@@H](O)[C@]1(C)O [Example 9]	MIC	≤ 0.25 µg/mL
CC[C@H]1OC(=O)[C@H](C)[C@@H](O[C@H]2C[C@@](C)(OC)[C@@H](OCCCOCCOCCCc3ccc4c(c3)c(=O)c(C(=O)O)cn4N(C)C)[C@H](C)O2)[C@H](C)[C@@H](O[C@@H]2O[C@H](C)C[C@H](N(C)C)[C@H]2O)[C@](C)(O)C[C@@H](C)CN(C)[C@H](C)[C@@H](O)[C@]1(C)O [Example 15]	MIC	≤ 0.25 µg/mL
CC[C@H]1OC(=O)[C@H](C)[C@@H](O[C@H]2C[C@@](C)(OC)[C@@H](OCCCOCCOCCCc3ccc4c(c3)c(=O)c(C(=O)O)cn4CC)[C@H](C)O2)[C@H](C)[C@@H](O[C@@H]2O[C@H](C)C[C@H](N(C)C)[C@H]2O)[C@](C)(O)C[C@@H](C)CN(C)[C@H](C)[C@@H](OC)[C@]1(C)O [Example 8]	MIC	≤ 0.25 µg/mL
CC[C@H]1OC(=O)[C@H](C)[C@@H](OC2C[C@@](C)(OC)[C@@H](OCCNCCOCCNc3cc4c(=O)c(C(=O)O)cn(C5CC5)c4cc3Cl)[C@H](C)O2)[C@H](C)[C@@H](O[C@@H]2O[C@H](C)C[C@H](N(C)C)[C@H]2O)[C@](C)(O)C[C@@H](C)CN(C)[C@H](C)[C@@H]2OC(=O)O[C@]12C (some centres unmarked) [Example 3]	MIC	≤ 0.25 µg/mL
CC[C@H]1OC(=O)[C@H](C)[C@@H](O[C@H]2C[C@@](C)(OC)[C@@H](OCCCNC(=O)CCOCCOCCNc3cc4c(=O)c(C(=O)O)cn(C5CC5)c4cc3Cl)[C@H](C)O2)[C@H](C)[C@@H](O[C@@H]2O[C@H](C)C[C@H](N(C)C)[C@H]2O)[C@](C)(O)C[C@@H](C)CN(C)[C@H](C)[C@@H](O)[C@]1(C)O [Example 11]	MIC	≤ 0.25 µg/mL
CC[C@H]1OC(=O)[C@H](C)[C@@H](O[C@H]2C[C@@](C)(OC)[C@@H](OCCN(C)CCOCCOCCc3ccc4c(c3)c(=O)c(C(=O)O)cn4CC)[C@H](C)O2)[C@H](C)[C@@H](O[C@@H]2O[C@H](C)C[C@H](N(C)C)[C@H]2O)[C@](C)(OC)C[C@@H](C)C(=O)[C@H](C)[C@@H](O)[C@]1(C)O [Example 19]	MIC	≤ 0.25 µg/mL
